Organism: Rattus norvegicus
protocol-text: Open TG-GATES - Regimen: Daily Repeat
Format: toxicity, organism-based, Sprague-Dawley
Design: regimen Daily Repeat, gender Male, age 6 weeks
condition-parameters: in vivo, po, 0 mg/kg, 72 h, tissue Plasma, route gavage, dose level Control, time 3 day
result-type: Ca (mg/dL)
# number only, unit mg/dL dropped from output

compound	units-symbol	numeric-value
CCC1(c2ccccc2)C(=O)NC(=O)NC1=O	mg/dL	10.8
CC1=C(CC(=O)O)c2cc(F)ccc2/C1=C\c1ccc([S+](C)[O-])cc1 (stereo not given)	mg/dL	11.2
CCc1oc2ccccc2c1C(=O)c1cc(Br)c(O)c(Br)c1	mg/dL	9.9
CC[C@H]1[C@@H]2C[C@H]3[C@@H]4N(C)c5ccccc5[C@]45C[C@@H]([C@@H]2[C@H]5O)N3[C@@H]1O	mg/dL	11.1
CCCCc1oc2ccccc2c1C(=O)c1cc(I)c(OCCN(CC)CC)c(I)c1	mg/dL	10.9
CN(C)C(=N)N=C(N)N	mg/dL	11
O=NN(CCCl)C(=O)NC1CCCCC1	mg/dL	11
ClC(Cl)(Cl)Cl [CARBON TETRACHLORIDE]	mg/dL	10.9
OCCOCCN1CCN(C(c2ccccc2)c2ccc(Cl)cc2)CC1 (stereo not given) [HYDROXYZINE]	mg/dL	10.9

Supply measured Ca of CC(C)N(CCC(C(N)=O)(c1ccccc1)c1ccccn1)C(C)C (stereo not given) [DISOPYRAMIDE] in your reply. 10.6
